- ASSAY: Study .2: multiple rising dose trial in diabetic patients, once daily for 8 days, pharmacokinetic parameters
- Type: in vivo, human
- CONDITIONS_USED: human, plasma, oral, 10 mg, 10 mg single dose, Study .2, fasted; read-out: AUC0-inf Median
OUTCOME_MEASURE: AUC(0-inf) (µM·h)
Unit µM·h implied. Number only.

Ask: Endpoint output: AUC(0-inf) of `OC[C@H]1O[C@@H](c2ccc(Cl)c(Cc3ccc(O[C@H]4CCOC4)cc3)c2)[C@H](O)[C@@H](O)[C@@H]1O` . Value?
Result: 1.83

* * *

- ASSAY: Study .1: single dose study in healthy volunteers, pharmacokinetic parameters
- Type: in vivo, human
- CONDITIONS_USED: human, plasma, oral, 25 mg, 25 mg single dose, Study .1, fasted; read-out: tmax Mean
OUTCOME_MEASURE: Tmax (h)
Unit h implied. Number only.

Ask: Endpoint output: Tmax of `OC[C@H]1O[C@@H](c2ccc(Cl)c(Cc3ccc(O[C@H]4CCOC4)cc3)c2)[C@H](O)[C@@H](O)[C@@H]1O` . Value?
Result: 2.19

* * *

- ASSAY: Study .5: single dose study in healthy Japanese volunteers, pharmacokinetic parameters
- Assay type: in vivo, human
- CONDITIONS_USED: 10 mg single dose, Study .5, fasted; read-out: Cmax Max
OUTCOME_MEASURE: Cmax (nM)
Unit nM implied. Number only.

Ask: Endpoint output: Cmax of `OC[C@H]1O[C@@H](c2ccc(Cl)c(Cc3ccc(O[C@H]4CCOC4)cc3)c2)[C@H](O)[C@@H](O)[C@@H]1O` . Value?
Result: 454

* * *

- ASSAY: Study .2: multiple rising dose trial in diabetic patients, once daily for 8 days, pharmacokinetic parameters
- Assay type: in vivo, human
- CONDITIONS_USED: human, plasma, oral, 10 mg, 10 mg single dose, Study .2, fasted; read-out: tmax Mean
OUTCOME_MEASURE: Tmax (h)
Unit h implied. Number only.

Ask: Endpoint output: Tmax of `OC[C@H]1O[C@@H](c2ccc(Cl)c(Cc3ccc(O[C@H]4CCOC4)cc3)c2)[C@H](O)[C@@H](O)[C@@H]1O` . Value?
Result: 1.5

* * *

- ASSAY: Study .1: single dose study in healthy volunteers, pharmacokinetic parameters
- Type: in vivo, human
- CONDITIONS_USED: human, plasma, oral, 50 mg, 50 mg single dose, Study .1, fasted; read-out: AUC0-inf Median
OUTCOME_MEASURE: AUC(0-inf) (µM·h)
Unit µM·h implied. Number only.

Ask: Endpoint output: AUC(0-inf) of OC[C@H]1O[C@@H](c2ccc(Cl)c(Cc3ccc(O[C@H]4CCOC4)cc3)c2)[C@H](O)[C@@H](O)[C@@H]1O [Compound (I.9)] . Value?
Result: 8.29

* * *

- ASSAY: Study .3: single dose, cross-over, food effect study in healthy volunteers, pharmacokinetic parameters
- Assay type: in vivo, human
- CONDITIONS_USED: human, plasma, oral, 50 mg, 50 mg single dose, Study .3/fed; read-out: AUC0-inf Mean
OUTCOME_MEASURE: AUC(0-inf) (µM·h)
Unit µM·h implied. Number only.

Ask: Endpoint output: AUC(0-inf) of OC[C@H]1O[C@@H](c2ccc(Cl)c(Cc3ccc(O[C@H]4CCOC4)cc3)c2)[C@H](O)[C@@H](O)[C@@H]1O [Compound (I.9)] . Value?
Result: 7.59

* * *

- ASSAY: Pharmacokinetic profile in fasting humans, ranges over Studies .1 to .5
- Assay type: in vivo
- CONDITIONS_USED: human, plasma, oral, 2.5 mg, dose of 2.5 mg, read-out: Cmax
OUTCOME_MEASURE: Cmax

Ask: Endpoint output: Cmax of OC[C@H]1O[C@@H](c2ccc(Cl)c(Cc3ccc(O[C@H]4CCOC4)cc3)c2)[C@H](O)[C@@H](O)[C@@H]1O [Compound (I.9)] . Value?
Result: 40.3 to 96.3 nM

* * *

- ASSAY: Pharmacokinetic profile in fasting humans, ranges over Studies .1 to .5
- Format: in vivo
- CONDITIONS_USED: human, plasma, oral, 50 mg, dose of 50.0 mg, read-out: geometric mean Cmax
OUTCOME_MEASURE: Cmax

Ask: Endpoint output: Cmax of `OC[C@H]1O[C@@H](c2ccc(Cl)c(Cc3ccc(O[C@H]4CCOC4)cc3)c2)[C@H](O)[C@@H](O)[C@@H]1O` . Value?
Result: 1080 to 1140 nM

* * *

- ASSAY: Pharmacokinetic profile in fasting humans, ranges over Studies .1 to .5
- Format: in vivo
- CONDITIONS_USED: human, plasma, oral, 5 mg, dose of 5.0 mg, read-out: AUC
- Experimental: 5. Pharmacokinetic Parameters The pharmacokinetic parameters of pharmaceutical compositions and pharmaceutical dosage forms are assessed in healthy volunteer and patient populations. […] For the quantification of plasma concentrations of the active ingredient, 2.7 mL of blood was collected and transferred into an EDTA (ethylendiaminetetraacetic acid)-anticoagulant blood drawing tube. […] Concentrations of active substance in EDTA human plasma samples were quantitated using a HPLC/MS/MS method. […]
OUTCOME_MEASURE: AUC

Ask: Endpoint output: AUC of `OC[C@H]1O[C@@H](c2ccc(Cl)c(Cc3ccc(O[C@H]4CCOC4)cc3)c2)[C@H](O)[C@@H](O)[C@@H]1O` . Value?
Result: 1 to 1.31 µM·h

* * *

- ASSAY: Pharmacokinetic profile in fasting humans, ranges over Studies .1 to .5
- Type: in vivo
- CONDITIONS_USED: human, plasma, oral, 25 mg, single dose of 25.0 mg, read-out: geometric mean AUC0-inf
OUTCOME_MEASURE: AUC(0-inf)

Ask: Endpoint output: AUC(0-inf) of OC[C@H]1O[C@@H](c2ccc(Cl)c(Cc3ccc(O[C@H]4CCOC4)cc3)c2)[C@H](O)[C@@H](O)[C@@H]1O [Compound (I.9)] . Value?
Result: 3.75 to 6.13 µM·h

* * *

- ASSAY: Study .3: single dose, cross-over, food effect study in healthy volunteers, pharmacokinetic parameters
- Format: in vivo, human
- CONDITIONS_USED: human, plasma, oral, 50 mg, 50 mg single dose, Study .3/fed; read-out: Cmax gMean
OUTCOME_MEASURE: Cmax (nM)
Unit nM implied. Number only.

Ask: Endpoint output: Cmax of OC[C@H]1O[C@@H](c2ccc(Cl)c(Cc3ccc(O[C@H]4CCOC4)cc3)c2)[C@H](O)[C@@H](O)[C@@H]1O [Compound (I.9)] . Value?
Result: 806

* * *

- ASSAY: Study .5: single dose study in healthy Japanese volunteers, pharmacokinetic parameters
- Assay type: in vivo, human
- CONDITIONS_USED: 5 mg single dose, Study .5, fasted; read-out: Cmax Max
OUTCOME_MEASURE: Cmax
Answer by giving the amount and then stating its unit.

Ask: Endpoint output: Cmax of OC[C@H]1O[C@@H](c2ccc(Cl)c(Cc3ccc(O[C@H]4CCOC4)cc3)c2)[C@H](O)[C@@H](O)[C@@H]1O [Compound (I.9)] . Value?
Result: 230 nM

* * *

- ASSAY: Study .1: single dose study in healthy volunteers, pharmacokinetic parameters
- Type: in vivo, human
- CONDITIONS_USED: human, plasma, oral, 2.5 mg, 2.5 mg single dose, Study .1, fasted; read-out: AUC0-inf gMean
OUTCOME_MEASURE: AUC(0-inf) (µM·h)
Unit µM·h implied. Number only.

Ask: Endpoint output: AUC(0-inf) of `OC[C@H]1O[C@@H](c2ccc(Cl)c(Cc3ccc(O[C@H]4CCOC4)cc3)c2)[C@H](O)[C@@H](O)[C@@H]1O` . Value?
Result: 0.394

* * *

- ASSAY: Study .1: single dose study in healthy volunteers, pharmacokinetic parameters
- Assay type: in vivo, human
- CONDITIONS_USED: human, plasma, oral, 25 mg, 25 mg single dose, Study .1, fasted; read-out: Cmax Mean
OUTCOME_MEASURE: Cmax (nM)
Unit nM implied. Number only.

Ask: Endpoint output: Cmax of OC[C@H]1O[C@@H](c2ccc(Cl)c(Cc3ccc(O[C@H]4CCOC4)cc3)c2)[C@H](O)[C@@H](O)[C@@H]1O [Compound (I.9)] . Value?
Result: 505

* * *

- ASSAY: Study .1: single dose study in healthy volunteers, pharmacokinetic parameters
- Assay type: in vivo, human
- CONDITIONS_USED: human, plasma, oral, 10 mg, 10 mg single dose, Study .1, fasted; read-out: AUC0-inf Mean
OUTCOME_MEASURE: AUC(0-inf) (µM·h)
Unit µM·h implied. Number only.

Ask: Endpoint output: AUC(0-inf) of `OC[C@H]1O[C@@H](c2ccc(Cl)c(Cc3ccc(O[C@H]4CCOC4)cc3)c2)[C@H](O)[C@@H](O)[C@@H]1O` . Value?
Result: 1.73

* * *

- ASSAY: Study .3: single dose, cross-over, food effect study in healthy volunteers, pharmacokinetic parameters
- Assay type: in vivo, human
- CONDITIONS_USED: human, plasma, oral, 50 mg, 50 mg single dose, Study .3/fed; read-out: Cmax Median
OUTCOME_MEASURE: Cmax
Answer by giving the amount and then stating its unit.

Ask: Endpoint output: Cmax of `OC[C@H]1O[C@@H](c2ccc(Cl)c(Cc3ccc(O[C@H]4CCOC4)cc3)c2)[C@H](O)[C@@H](O)[C@@H]1O` . Value?
Result: 830 nM
